study-system: JAK1 JH1 JH2 (human) (UniProt P23458)
Sequence (P23458 whole entry, looked up): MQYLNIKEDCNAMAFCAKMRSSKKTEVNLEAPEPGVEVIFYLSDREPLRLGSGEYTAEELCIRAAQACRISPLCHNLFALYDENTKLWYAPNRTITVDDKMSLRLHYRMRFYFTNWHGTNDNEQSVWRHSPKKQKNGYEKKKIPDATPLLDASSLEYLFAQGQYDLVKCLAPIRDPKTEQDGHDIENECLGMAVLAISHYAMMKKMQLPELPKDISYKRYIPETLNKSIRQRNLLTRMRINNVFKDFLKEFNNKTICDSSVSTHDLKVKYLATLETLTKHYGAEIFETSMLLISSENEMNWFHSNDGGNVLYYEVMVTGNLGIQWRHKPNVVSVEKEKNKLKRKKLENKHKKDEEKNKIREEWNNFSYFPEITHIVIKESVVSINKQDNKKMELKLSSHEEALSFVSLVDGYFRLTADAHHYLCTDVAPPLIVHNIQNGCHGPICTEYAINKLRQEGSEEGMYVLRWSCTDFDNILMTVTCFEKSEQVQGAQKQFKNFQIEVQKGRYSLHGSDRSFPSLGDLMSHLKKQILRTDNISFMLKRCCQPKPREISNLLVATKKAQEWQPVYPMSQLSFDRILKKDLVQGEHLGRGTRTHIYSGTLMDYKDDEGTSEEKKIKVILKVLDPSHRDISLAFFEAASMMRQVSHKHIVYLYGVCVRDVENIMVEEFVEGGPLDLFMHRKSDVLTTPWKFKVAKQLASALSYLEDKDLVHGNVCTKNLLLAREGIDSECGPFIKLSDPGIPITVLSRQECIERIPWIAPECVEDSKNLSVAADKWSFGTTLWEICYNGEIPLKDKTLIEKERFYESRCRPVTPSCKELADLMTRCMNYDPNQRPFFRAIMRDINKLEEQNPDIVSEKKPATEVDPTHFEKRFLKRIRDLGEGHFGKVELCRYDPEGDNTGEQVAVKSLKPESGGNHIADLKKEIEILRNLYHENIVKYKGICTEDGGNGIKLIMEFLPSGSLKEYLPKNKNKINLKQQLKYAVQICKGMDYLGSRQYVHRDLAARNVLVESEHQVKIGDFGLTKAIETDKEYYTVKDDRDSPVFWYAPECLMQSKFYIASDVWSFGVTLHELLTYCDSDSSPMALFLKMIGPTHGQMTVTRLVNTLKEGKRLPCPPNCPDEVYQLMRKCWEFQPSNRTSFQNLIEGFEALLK
assay-text: Caliper, Mobility shift assay off-chip
settings: compound 0.2 µM
measured-attribute: inhibition (%)
Numeric answer only, unit % assumed.

[[record]]
chem_smiles = "Cc1ccc(Nc2nccc(N(C)c3ccc4c(C)n(C)nc4c3)n2)cc1S(N)(=O)=O"
study_system = "JAK1 JH1 JH2 (human) (UniProt P23458)"
uom = "%"
observed_result = 0.8

[[record]]
chem_smiles = "COc1cc2c(Oc3ccc4[nH]c(C)cc4c3F)ncnc2cc1OCCCN1CCCC1"
study_system = "JAK1 JH1 JH2 (human) (UniProt P23458)"
uom = "%"
observed_result = -3.6

[[record]]
chem_smiles = "CCN(CC)CCNC(=O)c1c(C)[nH]c(/C=C2\\C(=O)Nc3ccc(F)cc32)c1C"
study_system = "JAK1 JH1 JH2 (human) (UniProt P23458)"
uom = "%"
observed_result = 10.9


Would you kindly look at the next entry?
Entry under review: CNC(=O)c1cc(Oc2ccc(NC(=O)Nc3ccc(Cl)c(C(F)(F)F)c3)cc2)ccn1 . Reported inhibition? 3.1

====

Recorded inhibition for the following compounds
study-system: TTK (human) (UniProt P33981)
Sequence (P33981 whole entry, looked up): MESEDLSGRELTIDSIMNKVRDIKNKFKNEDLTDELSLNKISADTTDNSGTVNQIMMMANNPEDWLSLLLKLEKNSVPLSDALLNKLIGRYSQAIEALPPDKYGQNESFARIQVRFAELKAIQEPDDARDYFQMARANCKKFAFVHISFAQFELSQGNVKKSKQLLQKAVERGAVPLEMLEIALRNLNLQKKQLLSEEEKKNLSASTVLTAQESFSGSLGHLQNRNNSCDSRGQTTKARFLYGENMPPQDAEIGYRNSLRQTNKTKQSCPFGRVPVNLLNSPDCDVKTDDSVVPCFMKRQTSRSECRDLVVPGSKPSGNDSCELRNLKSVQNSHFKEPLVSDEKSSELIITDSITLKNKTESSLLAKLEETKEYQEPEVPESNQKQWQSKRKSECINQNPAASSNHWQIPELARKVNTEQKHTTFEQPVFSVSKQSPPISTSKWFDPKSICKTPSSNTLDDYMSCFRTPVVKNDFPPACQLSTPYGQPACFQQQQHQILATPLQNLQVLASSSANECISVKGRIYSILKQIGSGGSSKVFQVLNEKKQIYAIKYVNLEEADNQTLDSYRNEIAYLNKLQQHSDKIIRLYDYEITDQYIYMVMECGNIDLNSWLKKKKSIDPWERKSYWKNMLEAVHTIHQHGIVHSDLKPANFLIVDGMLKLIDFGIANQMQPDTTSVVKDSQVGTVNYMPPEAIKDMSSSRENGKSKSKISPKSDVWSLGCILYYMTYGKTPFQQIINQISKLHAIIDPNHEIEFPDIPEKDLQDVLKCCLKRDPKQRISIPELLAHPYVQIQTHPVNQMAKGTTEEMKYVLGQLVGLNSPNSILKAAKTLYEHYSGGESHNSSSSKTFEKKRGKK
assay-text: ELISA
settings: compound 0.2 µM

Examples with their reported inhibition follow.
[[record]]
chem_smiles = "COc1cc2c(Oc3ccc4[nH]c(C)cc4c3F)ncnc2cc1OCCCN1CCCC1"
observed_result = "-2%"

[[record]]
chem_smiles = "CNC(=O)c1cc(Oc2ccc(NC(=O)Nc3ccc(Cl)c(C(F)(F)F)c3)cc2)ccn1"
observed_result = "-4.3%"

[[record]]
chem_smiles = "CCN(CC)CCNC(=O)c1c(C)[nH]c(/C=C2\\C(=O)Nc3ccc(F)cc32)c1C"
observed_result = "11.5%"


Field request: inhibition | item: Cc1ccc(Nc2nccc(N(C)c3ccc4c(C)n(C)nc4c3)n2)cc1S(N)(=O)=O 2.4%

====

study-system: BRSK2 (human)
assay-text: Caliper, Mobility shift assay off-chip
settings: compound 0.02 µM
# inhibition values compiled below
Just the number in %, nothing appended.

Example compounds with recorded inhibition:
[[record]]
chem_smiles = "COc1cc2c(Oc3ccc4[nH]c(C)cc4c3F)ncnc2cc1OCCCN1CCCC1"
uom = "%"
observed_result = -2.3

[[record]]
chem_smiles = "CNC(=O)c1cc(Oc2ccc(NC(=O)Nc3ccc(Cl)c(C(F)(F)F)c3)cc2)ccn1"
uom = "%"
observed_result = -1.1

[[record]]
chem_smiles = "Cc1ccc(Nc2nccc(N(C)c3ccc4c(C)n(C)nc4c3)n2)cc1S(N)(=O)=O"
uom = "%"
observed_result = -2.2


Looking for the measured inhibition of CNC(=O)c1ccccc1Sc1ccc2c(/C=C/c3ccccn3)n[nH]c2c1 , can you help? 12.9

====

study-system: LTK (human)
assay-text: Caliper, Mobility shift assay off-chip
settings: compound 0.02 µM
# inhibition annotations
The reply should contain only the number, in %.

Known inhibition results, listed for orientation:
[[record]]
chem_smiles = "CNC(=O)c1ccccc1Sc1ccc2c(/C=C/c3ccccn3)n[nH]c2c1"
study_system = "LTK (human)"
observed_result = 0.9

[[record]]
chem_smiles = "Cc1ccc(Nc2nccc(N(C)c3ccc4c(C)n(C)nc4c3)n2)cc1S(N)(=O)=O"
study_system = "LTK (human)"
observed_result = 5.1

[[record]]
chem_smiles = "COc1cc2c(Oc3ccc4[nH]c(C)cc4c3F)ncnc2cc1OCCCN1CCCC1"
study_system = "LTK (human)"
observed_result = 4.7


Here is another compound to look at.
Query (compound): CNC(=O)c1cc(Oc2ccc(NC(=O)Nc3ccc(Cl)c(C(F)(F)F)c3)cc2)ccn1 ; field requested: inhibition -2.2
